Experiment: Human exposure (AUC) used for dose extrapolation
Conditions: in vivo, humans, dose of 7.5 mg
Where a name gives a salt, the structure may show the parent alone.
metric: AUC (ng·h/mL)

>>> numericvalue("CCc1ccc(CCOc2ccc(CC3SC(=O)NC3=O)cc2)nc1 (stereo not shown) [PIO, Pioglitazone HCl]")
2800

###

Test: in vivo
Conditions: Wistar, rat, po, 0.04 mg/kg/day
Where a name gives a salt, the structure may show the parent alone.
metric: AUC (ng·h/mL)

>>> numericvalue("CCc1ccc(CCOc2ccc(CC3SC(=O)NC3=O)cc2)nc1 (stereo not shown) [PIO, Pioglitazone HCl]")
570

###

Test: in vivo
Conditions: Wistar, rat, po, 0.32 mg/kg/day
Structures can show the parent of a compound that is named as a salt.
metric: AUC (ng·h/mL)

>>> numericvalue("CCc1ccc(CCOc2ccc(CC3SC(=O)NC3=O)cc2)nc1 (stereo not shown) [PIO, Pioglitazone HCl]")
4550
